Test system: SW-620 colon
Test: NCI tumour cell line growth inhibition, 48 h
measured-attribute: TGI

[[record]]
structure_as_smiles = "Cc1ccc(N2CN3OC(=O)N(c4ccccc4)[C@@]3(c3ccccc3)C2)cc1"
measured_attribute = "TGI"
reported = "> 100 µM"

[[record]]
structure_as_smiles = "CCOP(=O)(CN1CCNCCN(CP(=O)(OCC)OCC)CC1)OCC"
measured_attribute = "TGI"
reported = "> 100 µM"

[[record]]
structure_as_smiles = "COC(=O)C1=C(C(=O)OC)SC(=C(Cl)C(=S)Oc2ccccc2N)S1"
measured_attribute = "TGI"
reported = "> 50 µM"

[[record]]
structure_as_smiles = "COc1cc([C@@H]2c3cc4c(c(O[C@@H]5O[C@H]6CO[C@@H](C)O[C@H]6[C@H](O)[C@@H]5O)c3C[C@H]3COC(=O)[C@@H]32)OCO4)cc(OC)c1O"
measured_attribute = "TGI"
reported = "> 100 µM"

[[record]]
structure_as_smiles = "Cc1noc(C)c1-n1nc2ccc3nonc3c2n1"
measured_attribute = "TGI"
reported = "> 100 µM"

[[record]]
structure_as_smiles = "O=C1c2c(c(-c3ccccc3)c(-c3ccccc3)c(-c3ccccc3)c2-c2ccccc2)C(=O)N1c1cccc(Br)c1"
measured_attribute = "TGI"
reported = "> 100 µM"

